Consider the following binders; for each one, report its pKd.
Target: T1, cyno TfR extracellular domain (analogous construct to human TfR ecd) (cynomolgus monkey, UniProt Q5RDH6 87-760 (Pongo abelii entry))
T1 construct: also called cynoTfR ecd
T1 chain: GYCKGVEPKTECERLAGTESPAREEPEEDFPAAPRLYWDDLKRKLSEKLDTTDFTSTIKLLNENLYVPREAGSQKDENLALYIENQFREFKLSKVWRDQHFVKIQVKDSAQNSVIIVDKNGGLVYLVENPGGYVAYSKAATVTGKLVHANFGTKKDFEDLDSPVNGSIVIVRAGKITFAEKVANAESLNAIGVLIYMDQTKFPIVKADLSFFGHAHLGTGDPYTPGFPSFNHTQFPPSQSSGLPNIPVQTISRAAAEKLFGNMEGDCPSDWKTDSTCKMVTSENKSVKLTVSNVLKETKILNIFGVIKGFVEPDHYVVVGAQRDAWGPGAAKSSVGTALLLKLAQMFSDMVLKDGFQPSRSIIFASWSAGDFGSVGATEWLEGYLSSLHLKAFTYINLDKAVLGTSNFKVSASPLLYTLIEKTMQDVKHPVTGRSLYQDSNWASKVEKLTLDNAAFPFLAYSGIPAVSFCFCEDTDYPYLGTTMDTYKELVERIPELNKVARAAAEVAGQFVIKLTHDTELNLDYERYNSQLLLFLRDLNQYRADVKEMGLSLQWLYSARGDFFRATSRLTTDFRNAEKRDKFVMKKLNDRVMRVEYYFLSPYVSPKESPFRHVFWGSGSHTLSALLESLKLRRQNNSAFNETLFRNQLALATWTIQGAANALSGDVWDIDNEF
Assay: SPR, IgG
When answering, recall that pKd equals minus log10 of the concentration in mol/L, and write that number alone.

Request: // returns reported pKd for input 7G7 (antibody, V domains shown, Mouse hybridoma antibody; also called clone 7G7) VH: QVQLQQPGSELVRPGASVKLSCKASGYTFTSYWMHWVKQRHGQGLEWIGNIYPGSGSTKYDERFKSKGTLTVDTSSSTAYMHLSSLTSEDSAVYYCTRGGYDSRAWFAYWGQGTLVTVSA VL: DIVLTQSPASLAVSLGQRATISCRARQSVSTSSYSFMHWYRQKAGQPPKLLIKYASIQESGVPARFSGSGSGTDFTLNILPVEEEDTATYYCQHTWEIPFTFGSGTKLEIK
Result: 6.58

Request: // returns reported pKd for input 13D4 (antibody, V domains shown, Mouse hybridoma antibody; also called clone 13D4) VH: QVQLQQSGAELMKPGASVKISCKAAGYTFSNYWIEWVKQRPGHGLEWIGEILPGSGSTKYNEKFKGKATFTADTSSNTAYMQLSSLTSEDSAVYYCARRGGYGYDGEFAYWGQGTLVTVSA VL: DIQMTQTTSSLSASLGDRVTINCRAGQDITNYLNWFQQKPDGTVKLLIYYTSRLHSGVPSRFSGSGSGTDYSLTITNLEQEDIATYFCQQANTLPYTFGGGTKLEIK
Result: 8.07

Request: // returns reported pKd for input 7A4 HC/8A2 LC (antibody, V domains shown, chimeric IgG; also called ch7A4/8A2) VH: QVQLQQSGPELVRPGVSVKISCKGSGYTFTDYAMHWVKQSHAKSLEWIGGISTYFGRTNYNQKFKGRATMTVDKSSSTAYMELARLTSEDSALYYCARGLSGNYVMDYWGQGTSVTVSS VL: DIVLTQSPASLAVSLGQRATISCRASESVDSYGNSFMHWYQQKPGQPPKLLIYRASNLESGIPARFSGSGSRTDFTLTINPVEADDVATYYCQQSNEGPPTFGGGTKLEIK
Result: 9.03

Request: // returns reported pKd for input 1B12 (antibody, V domains shown, Mouse hybridoma antibody; also called clone 1B12) VH: EVKLVESGGGLVQPGGFLKLSCATSGFTFSDYYMYWVRQTPEKRLEWVASISNGGDNTYYPDTVKGRFTISRDNAKNTLYLQMSRLKSEDTAMYYCARQGALYDGYYRGAMDYWGQGTSVTVSS VL: QIVLTQSPAIMSASLGGRVTMTCTTSSSVPSSYFHWYQQKPGSSPKLWIYSTSNLASGVPARFSGSGSGTSYSLTISSMEAEDAATYYCHQYHRSPFTFGSGTKLEIK
Result: 7.36

Request: // returns reported pKd for input 16F6 (antibody, V domains shown, Mouse hybridoma antibody; also called clone 16F6) VH: DVQLQESGPGLVKPSQSLSLTCTVTGNSITSEYAWNWIRQFPGNKLEWMGYISYSGTTSYNPSLKSRISITRDTSKNQLFLQLNSVTTEDTATYFCARYGYGNPATRYFDVWGAGTTVTVSS VL: DVQITQSPSYLTASPGETITINCRASKSISKYLAWYQEKPGKTNKLLIYSGSTLQSGIPSRFSGSGSGTDFTLTISNLEPEDFAMYYCQQHNEYPWTFGGGTKLEIK
Result: 8.13
